Assay: Components of the Cytosolic LPS Sensing Pathway: Gene Identification via Genome-wide siRNA Screen;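 note: robust z of the log signal after scaling to non-targeting control siRNA wells of the plate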
Conditions: RAW264.7 macrophages, IL-1a HTRF, actives lie on both sides, screened at 100 nM (by protocol), cells primed 5 h with Pam3CSK4 first
Out of some 53,000 sequences screened, about 3,700 (7%) were called active.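 Rule for the calls: active = gene knockdowns whose robust z-score for IL-1 alpha signal is at least 2 or at most -2, so actives lie on both sides; inactive = the rest.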 The sample as a whole holds a higher share of actives than the screen did.
Outcome codes: active, inactive

[
  {
    "sequence_string": "CCAUCCAUAUGAACUAUGATT against Slc30a4",
    "class_label": "inactive"
  },
  {
    "sequence_string": "GGGUCUGCUACAUCUUCGGTT against Ino80e",
    "class_label": "active"
  },
  {
    "sequence_string": "GGCAUUCCAGAGAAAGCGUTT against F3",
    "class_label": "inactive"
  },
  {
    "sequence_string": "GGAUGAAGAGAAAGUUCUATT against Mak",
    "class_label": "active"
  },
  {
    "sequence_string": "GGAAAUCUUCAUGAUCAGUTT against Fam24b",
    "class_label": "active"
  },
  {
    "sequence_string": "CGACUACCUGGAUAUCUACTT against Efna2",
    "class_label": "inactive"
  },
  {
    "sequence_string": "CGUUAGCUGUUAUGAUCUATT against Cept1",
    "class_label": "inactive"
  },
  {
    "sequence_string": "GCUGAUUCCGUGUCCCAACTT against Gng2",
    "class_label": "active"
  },
  {
    "sequence_string": "GGUCCAGGUCUGAAUCUAGTT against Tra2b",
    "class_label": "active"
  },
  {
    "sequence_string": "GGACAAGAUUCUAAACUGCTT against Wdr37",
    "class_label": "inactive"
  },
  {
    "sequence_string": "CCACGUAUUGUUAGUAGAATT against Ei24",
    "class_label": "inactive"
  },
  {
    "sequence_string": "GGAAAACCUAAUAAGGUUCTT against Iqce",
    "class_label": "active"
  },
  {
    "sequence_string": "GGAAUAGUGAAGGUACUUUTT against Cer1",
    "class_label": "active"
  },
  {
    "sequence_string": "GGUUUUAUUUGGGAUUAGCTT against Arfgap2",
    "class_label": "inactive"
  },
  {
    "sequence_string": "CGAUUAGUCUCUCAUUAUUTT against Ipo11",
    "class_label": "inactive"
  },
  {
    "sequence_string": "GGCCAUACGGACCAUGUAUTT against Slc25a19",
    "class_label": "inactive"
  }
]

---

Assay: Components of the Cytosolic LPS Sensing Pathway: Gene Identification via Genome-wide siRNA Screen;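 note: robust z of the log signal after scaling to non-targeting control siRNA wells of the plate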
Settings: RAW264.7 macrophages, IL-1a HTRF, actives lie on both sides, screened at 100 nM (by protocol), cells primed 5 h with Pam3CSK4 first
In all, about 53,000 sequences went through this assay and about 3,700 (7%) were called active.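 How the source made its calls: active means gene knockdowns whose robust z-score for IL-1 alpha signal is at least 2 or at most -2, so actives lie on both sides; inactive means the rest.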 Many of the other results were omitted from the sample, so actives are more common in it than they were.
Possible outcomes: 1.0 (active), 0.0 (inactive)

[
  {
    "sequence_string": "GGUGUGUGGUUUUUAAUAATT against Abhd3",
    "class_label": 0.0
  },
  {
    "sequence_string": "GCCGUCUUUACAUUCCUGATT against Olfr605",
    "class_label": 0.0
  },
  {
    "sequence_string": "GGAGGUGAACCAUAGAGAGTT against Csrnp2",
    "class_label": 0.0
  },
  {
    "sequence_string": "GGCUCUGUUCUCCACAUUGTT against Phf5a",
    "class_label": 0.0
  },
  {
    "sequence_string": "GGAGUUCAACUAGAUGUGGTT against Bcl2l13",
    "class_label": 0.0
  },
  {
    "sequence_string": "GCCUUUAUAGUCUUAAGCATT against Ndc1",
    "class_label": 0.0
  },
  {
    "sequence_string": "CCCAGGUGUAUUUUACAUATT against D10Wsu102e",
    "class_label": 0.0
  },
  {
    "sequence_string": "GGAUGUCUUUUUAAGGUUUTT against Eid1",
    "class_label": 0.0
  },
  {
    "sequence_string": "GGAAAGGAACAUAUUUGACTT against Gss",
    "class_label": 0.0
  },
  {
    "sequence_string": "GGCUCUUCCAACAGUUCUUTT against Grk1",
    "class_label": 1.0
  },
  {
    "sequence_string": "GCAAGGAGUUUAUGUGAGUTT against Olfr170",
    "class_label": 0.0
  },
  {
    "sequence_string": "GGCCUUAGAGAAAAUCUUUTT against Brd3",
    "class_label": 0.0
  },
  {
    "sequence_string": "CCCAGCUUUCAUCCUUUGUTT against Emc7",
    "class_label": 0.0
  },
  {
    "sequence_string": "GGGAAGAGAGACGAAAAAATT against Nufip1",
    "class_label": 0.0
  },
  {
    "sequence_string": "GGACCAGACGAACAGUGAUTT against Surf2",
    "class_label": 1.0
  }
]

---

Assay: Components of the Cytosolic LPS Sensing Pathway: Gene Identification via Genome-wide siRNA Screen;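 note: robust z of the log signal after scaling to non-targeting control siRNA wells of the plate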
Conditions: RAW264.7 macrophages, IL-1a HTRF, actives lie on both sides, screened at 100 nM (by protocol), cells primed 5 h with Pam3CSK4 first
The campaign covered roughly 53,000 sequences. About 3,700 (7%) were called active. The full list was thinned out, with actives kept by preference.

[
  {
    "sequence_string": "GGUACCAACGUGUAUGGCATT against Gpaa1",
    "z-score": 0.182
  },
  {
    "sequence_string": "GGACCUGAAUAAGACUAUUTT against Lgmn",
    "z-score": -0.429
  },
  {
    "sequence_string": "CCUCGAAACUCAUUUCCAGTT against Prkch",
    "z-score": -0.603
  },
  {
    "sequence_string": "GGAUAGUUUGGUAAUGAAATT against Cds1",
    "z-score": -0.748
  },
  {
    "sequence_string": "GCUAUUGAGUUAUCGUUGCTT against Stam2",
    "z-score": 0.715
  },
  {
    "sequence_string": "GGACUUUGACCCGUACUAUTT against Scn8a",
    "z-score": 0.951
  },
  {
    "sequence_string": "GGCCAAGCUAUAAGAAAUGTT against Cntnap2",
    "z-score": 0.201
  },
  {
    "sequence_string": "GCUCAUUGAGUACAAGACCTT against Ndufs2",
    "z-score": 1.76
  },
  {
    "sequence_string": "GCAUUUUGUGGAAAAGGCUTT against Olfr582",
    "z-score": -2.19
  },
  {
    "sequence_string": "GGGAAAAGAAAGUACCUACTT against Zcchc10",
    "z-score": 2.26
  },
  {
    "sequence_string": "GGUUCUUCGAAGCAAUAGCTT against Sphkap",
    "z-score": -0.973
  },
  {
    "sequence_string": "GGGACCAGAACAAAGUGGUTT against Olfr487",
    "z-score": 0.474
  },
  {
    "sequence_string": "GCGGAGUCUUUGGCUUAGATT against Lratd2",
    "z-score": 1.03
  },
  {
    "sequence_string": "GCCGCACGUUUUUGAGUUGTT against Islr2",
    "z-score": -0.554
  },
  {
    "sequence_string": "GCUAGACCUCACUGUUUUUTT against Sprr2i",
    "z-score": 1.03
  },
  {
    "sequence_string": "GGAACUAGCCUUCACUGACTT against Rabggta",
    "z-score": 0.931
  },
  {
    "sequence_string": "GGGUAAUUAUUGUUUUCUGTT against Eif4e3",
    "z-score": 2.19
  },
  {
    "sequence_string": "GGAGAAAAAGAGAAGUAUUTT against Skint9",
    "z-score": -0.874
  },
  {
    "sequence_string": "GGAAAUAUGAUAGAAUGCCTT against Pramel32",
    "z-score": 0.17
  },
  {
    "sequence_string": "CCUUUACGUUUCUGUGUCUTT against Slc37a4",
    "z-score": -1.19
  },
  {
    "sequence_string": "GGCUCAGUACUUUCUAAAATT against Vmn1r72",
    "z-score": -0.637
  }
]

---

Assay: Components of the Cytosolic LPS Sensing Pathway: Gene Identification via Genome-wide siRNA Screen;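 note: robust z of the log signal after scaling to non-targeting control siRNA wells of the plate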
Settings: RAW264.7 macrophages, IL-1a HTRF, actives lie on both sides, screened at 100 nM (by protocol), cells primed 5 h with Pam3CSK4 first
Among all 53,000 sequences or so, about 3,700 (7%) were called active. Many of the other results were omitted from the sample, so actives are more common in it than they were.

[
  {
    "sequence_string": "GAGUGAUGCGCAUUUCGAGTT against Sf3b5",
    "z-score": -2.53
  },
  {
    "sequence_string": "GGACCAUGAGGGAAUACAGTT against Bdkrb2",
    "z-score": 4.91
  },
  {
    "sequence_string": "GCUGUCACUUUGAAUCCCUTT against Nrg1",
    "z-score": -0.988
  },
  {
    "sequence_string": "GCUUCUAGGGACCUAUUAATT against Dhx30",
    "z-score": -0.0854
  },
  {
    "sequence_string": "GGAAUAUCUGAUAUCAGUATT against Mdga2",
    "z-score": 0.0727
  }
]
